Hey, just so you know, these numbers are from PubChem BioAssay (NCATS).

- tgt: Cytochrome P450 2C19 (Homo sapiens)
- test-protocol: qHTS Assay for Inhibitors and Substrates of Cytochrome P450 2C19 (AID 899); note: nearly all actives have a fitted effect of over 60% in size
- setup-conditions: recombinant CYP2C19, luciferin-H EGE luminescence; series mostly up to 57.1 µM
Inconclusive results are not listed. Active and inactive are the calls of the source. Calls come from the whole dose curve; as a rule, active = well fitted inhibition curve with a large enough effect; inconclusive = small, poorly fitted or top-dose-only effect; inactive = no such curve, though single readings can be large or run the other way.
Outcome codes: yes (1) (active), no (0) (inactive)

| molecular-string | label-value |
| --- | --- |
| CC(C)C(=O)c1c(C(C)C)nn2ccccc12 | no (0) |
| C=Cc1c(C)c2cc3[nH]c(cc4nc(cc5nc(cc1[nH]2)C(C)=C5CCC(=O)O)C(CCC(=O)O)=C4C)c(C)c3C=C | no (0) |
| CCCCOC(=O)c1ccc(O)cc1 | yes (1) |
| O=c1cc(CO)occ1O | no (0) |
| Nc1cc(=O)[nH]c(N)n1 | no (0) |

###

- test-protocol: qHTS for differential inhibitors of proliferation of Plasmodium falciparum line 3D7 (AID 1876)
- setup-conditions: P. falciparum 3D7 proliferation inhibition; series mostly up to 28.7 µM
Records with an inconclusive call do not appear. Activity calls are given as the source filed them. Calls follow the shape of the dose curve; as a rule, active = well fitted curve in the direction sought with a large enough effect; inconclusive = small, poorly fitted or top-dose-only effect, or another doubt; inactive = no such curve, though single readings can be large or run the other way.
Outcome codes: active, inactive

| molecule | label-value |
| --- | --- |
| CC(C)NC[C@H](O)c1ccc(O)c(O)c1 | inactive |
| O=C1N=C(O)CN1/N=C/c1ccc(-c2ccc([N+](=O)[O-])cc2)o1 | active |
| CSc1ccc2c(c1)N(CCC1CCCCN1C)c1ccccc1S2 (stereo not drawn) | active |

###

Property: max response; scope: individual molecules
- Tested on: NIH3T3
- test-protocol: Cytotoxic Profiling of Annotated Libraries Using Quantitative High-Throughput Screening (AID 1296008); note: % is set by controls: 0 for no effect and ±100 for the full control effect; nearly all actives have a fitted effect of over 60% in size
- setup-conditions: Five cell lines viability, CellTiter-Glo ATP luminescence, 48-72 h; stronger effect = lower value
- Experimental: Cell-based phenotypic screening is a commonly used approach to discover biological pathways, novel drug targets, chemical probes and high-quality hit-to-lead molecules. […] A pintool (Kalypsys) was used to transfer 23 nL of compound solution to the 1536-well assay plates. […] Plates were left at room temperature for 10 min before imaging the ATP-coupled luminescence using a ViewLux microplate imager (PerkinElmer, Waltham, MA).
Inconclusive results are not listed.

| molecule | unit-of-measure | max response |
| --- | --- | --- |
| CN1CCC[C@@H]1Cc1c[nH]c2ccc(CCS(=O)(=O)c3ccccc3)cc12 | % | -4.41 |
| NC(=O)N/N=C/c1ccc([N+](=O)[O-])o1 | % | 3.44 |
| CC1(C)Oc2ccc(C#N)cc2[C@@H](N2CCCC2=O)[C@@H]1O | % | -6.15 |
| CN1CCOC(c2ccccc2)c2ccccc2C1 (stereo not given) | % | 2.98 |
| CCN(CC)CCSC(=O)C(c1ccccc1)c1ccccc1 | % | -1.72 |
| Cn1c(=O)c2c(ncn2CC2OCCO2)n(C)c1=O | % | 0.911 |
| O=C1O[C@H](CO)[C@@H](O)[C@H](O)[C@H]1O | % | -2.57 |
| O=c1[nH]cnc2c1ncn2[C@@H]1O[C@H](CO)[C@@H](O)[C@H]1O | % | 0.16 |
| C#CCN(C)Cc1ccccc1 | % | 3.32 |
| O=C1NS(=O)(=O)c2ccccc21 | % | -6 |
| CCOc1nc2cccc(C(=O)O)c2n1Cc1ccc(-c2ccccc2-c2nn[nH]n2)cc1 | % | 4.21 |
| CN(C)CCN(Cc1ccccc1)c1ccccn1 | % | 0.397 |
| OC[C@H]1O[C@@H](O[C@@H]2[C@@H](CO)O[C@](O)(CO)[C@H]2O)[C@H](O)[C@@H](O)[C@H]1O | % | 4.19 |
| O=S(=O)(O)NC1CCCCC1 | % | 1.01 |
| C[C@]12CC[C@@H]3c4ccc(O)cc4CC[C@H]3[C@@H]1CC[C@@H]2OC(=O)CCC1CCCC1 | % | 2.8 |
| Nc1ccc(S(=O)(=O)NC(=O)c2ccccc2)cc1 | % | -0.704 |
| CCCCOC(=O)c1ccc(O)cc1 | % | -12.6 |
| CCCCCCCCCCCCCCCCCCOCC(O)CO (stereo not given) | % | 4.13 |
| CC(C)C(=O)c1c(C(C)C)nn2ccccc12 | % | -15.3 |
| OCC(O)CN1CCN(c2ccccc2)CC1 (stereo not given) | % | -1.52 |
| CC[N+](CC)(CC)CCOc1ccc(/C=C/c2ccccc2)cc1 | % | -21.5 |
| CCN(CC)CCNC(=O)c1cc(Cl)c(N)cc1OC | % | -2.52 |
| Cc1ncc(COP(=O)(O)O)c(C=O)c1O | % | 3.84 |
| N[C@@H](CSSC[C@H](N)C(=O)O)C(=O)O | % | 0.783 |
| OCc1cc(C(O)CNCCCCCCOCCCCc2ccccc2)ccc1O (stereo not given) | % | -10.4 |
